# Subject Of Test: HLA-A02.01 class I MHC molecule (prepared complex) (human)
# Procedure Text: displacement of radiolabeled reference peptide from class I MHC, gel filtration; 'Affinity (nM)'
# Run Parameters: remark: other sources report otherwise
pIC50: −log10 of the molar value.

{"Binder": "MQLMPFGCL", "pIC50": 6.93}
{"Binder": "QLIMQLMPF", "pIC50": 6.71}
{"Binder": "IMQLMPFGC", "pIC50": 5.92}
{"Binder": "CLTSTVQLIM", "pIC50": 6.27}
{"Binder": "STVQLIMQL", "pIC50": 5.14}
{"Binder": "QLIMQLMPFG", "pIC50": 5.28}
{"Binder": "LIMQLMPFG", "pIC50": 5.48}
{"Binder": "MQLMPFGCLL", "pIC50": 7.79}
{"Binder": "VQLIMQLMPF", "pIC50": 5.31}
{"Binder": "IMQLMPFGCL", "pIC50": 6.19}
